- System: red blood cells
Where a SMILES comes first, the peptide text is derived from it. [ ]: non-standard residue; d: D form. ξ: configuration not given here. ξTic = O=C(O)C1Cc2ccccc2CN1; ξOic = O=C(O)C1CC2CCCCC2N1
measurementType: % hemolysis 100/25 μM (first value)

Task: Give the measured % hemolysis 100/25 μM (first value) for CC(=O)N[C@@H](Cc1ccccc1)C(=O)N1Cc2ccccc2CC1C(=O)N1C(C(=O)N[C@@H](CCCCN)C(=O)N2Cc3ccccc3CC2C(=O)N2C(C(=O)N[C@@H](Cc3ccccc3)C(=O)N3Cc4ccccc4CC3C(=O)N3C(C(=O)N[C@@H](CCCCN)C(=O)N4Cc5ccccc5CC4C(=O)N[C@@H](CCCCN)C(=O)N[C@@H](CCCCN)C(=O)N[C@@H](CCCCN)C(=O)N[C@@H](CCCCN)C(N)=O)CC4CCCCC43)CC3CCCCC32)CC2CCCCC21 (stereo partly shown) [FKAB-1Gc] (Ac-F[ξTic][ξOic]K[ξTic][ξOic]F[ξTic][ξOic]K[ξTic]KKKK-NH2)
Output: 86.8%/

---

- measurementNotes: in vitro
- measurementParameters: rat, microsomes, pH 7.4
Where a SMILES comes first, the peptide text is derived from it. [ ]: non-standard residue; d: D form. ξ: configuration not given here. ξTic = O=C(O)C1Cc2ccccc2CN1; ξOic = O=C(O)C1CC2CCCCC2N1
measurementType: remaining at 0.25 h, 1 μM (%)
Write the answer as a number in %, unit excluded.

Sample records with remaining at 0.25 h, 1 μM:
- CC(C)NCC(O)COc1cccc2ccccc12 (stereo not shown) [Propranolol, propranolol, reference compound]: 0.1
- CC(=O)CC(c1ccccc1)c1c(O)c2ccccc2oc1=O (stereo not shown) [Warfarin, warfarin, reference compound]: 93
- CC(=O)NCC(=O)N1Cc2ccccc2CC1C(=O)N1C(C(=O)N[C@@H](CCCCN)C(=O)N2Cc3ccccc3CC2C(=O)N2C(C(=O)NCC(=O)N3Cc4ccccc4CC3C(=O)N3C(C(=O)N[C@@H](CCCCN)C(=O)N4Cc5ccccc5CC4C(=O)N[C@@H](CCCCN)C(=O)N[C@@H](CCCCN)C(=O)N[C@@H](CCCCN)C(=O)N[C@@H](CCCCN)C(N)=O)CC4CCCCC43)CC3CCCCC32)CC2CCCCC21 (stereo partly shown) [FKAB-1Ge] (Ac-G[ξTic][ξOic]K[ξTic][ξOic]G[ξTic][ξOic]K[ξTic]KKKK-NH2): 69

Task: Give the measured remaining at 0.25 h, 1 μM for CC(=O)N[C@@H](Cc1ccccc1)C(=O)N1Cc2ccccc2CC1C(=O)N1C(C(=O)N[C@@H](CCCCN)C(=O)N2Cc3ccccc3CC2C(=O)N2C(C(=O)N[C@@H](Cc3ccccc3)C(=O)N3Cc4ccccc4CC3C(=O)N3C(C(=O)N[C@@H](CCCCN)C(=O)N4Cc5ccccc5CC4C(=O)N[C@@H](CCCCN)C(=O)N[C@@H](CCCCN)C(=O)N[C@@H](CCCCN)C(=O)N[C@@H](CCCCN)C(N)=O)CC4CCCCC43)CC3CCCCC32)CC2CCCCC21 (stereo partly shown) [FKAB-1Gc] (Ac-F[ξTic][ξOic]K[ξTic][ξOic]F[ξTic][ξOic]K[ξTic]KKKK-NH2)
Output: 73

---

As a worked illustration, we turn to % hemolysis 100/25 μM (first value) data collected for red blood cells.
Where a SMILES comes first, the peptide text is derived from it. [ ]: non-standard residue; d: D form. ξ: configuration not given here. Oic = O=C(O)[C@@H]1C[C@@H]2CCCC[C@@H]2N1; ξTic = O=C(O)C1Cc2ccccc2CN1; ξOic = O=C(O)C1CC2CCCCC2N1
Write the answer as a number in %/, unit excluded.

Sample records with % hemolysis 100/25 μM (first value):
* CC(=O)NCC(=O)N1Cc2ccccc2CC1C(=O)N1C(C(=O)N[C@@H](CCCCN)C(=O)N2Cc3ccccc3CC2C(=O)N2C(C(=O)NCC(=O)N3Cc4ccccc4CC3C(=O)N3C(C(=O)N[C@@H](CCCCN)C(=O)N4Cc5ccccc5CC4C(=O)N[C@@H](CCCCN)C(=O)N[C@@H](CCCCN)C(=O)N[C@@H](CCCCN)C(=O)N[C@@H](CCCCN)C(N)=O)CC4CCCCC43)CC3CCCCC32)CC2CCCCC21 (stereo partly shown) [FKAB-1Ge] (Ac-G[ξTic][ξOic]K[ξTic][ξOic]G[ξTic][ξOic]K[ξTic]KKKK-NH2) | 26.7
* CC(=O)NCC(=O)N[C@@H](Cc1ccccc1)C(=O)N1[C@H](C(=O)NCC(=O)N[C@@H](CCCCN)C(=O)N2[C@H](C(=O)NCC(=O)N[C@@H](Cc3ccccc3)C(=O)N3[C@H](C(=O)NCC(=O)N[C@@H](CCCCN)C(=O)N[C@@H](CCCCN)C(=O)N[C@@H](CCCCN)C(=O)N[C@@H](CCCCN)C(=O)N[C@@H](CCCCN)C(N)=O)C[C@@H]4CCCC[C@@H]43)C[C@@H]3CCCC[C@@H]32)C[C@@H]2CCCC[C@@H]21 [FKAB-1Gf, Ac-GF-Oic-GK-Oic-GF-Oic-GKKKKK-CONH2] (Ac-GF[Oic]GK[Oic]GF[Oic]GKKKKK-NH2) | 5.9

Task: Look up red blood cells data: % hemolysis 100/25 μM (first value) of CC(=O)NCC(=O)N[C@@H](Cc1ccccc1)C(=O)NCC(=O)N1C(C(=O)NCC(=O)N[C@@H](CCCCN)C(=O)NCC(=O)N2C(C(=O)NCC(=O)N[C@@H](Cc3ccccc3)C(=O)NCC(=O)N3C(C(=O)NCC(=O)N[C@@H](CCCCN)C(=O)NCC(=O)N[C@@H](CCCCN)C(=O)N[C@@H](CCCCN)C(=O)N[C@@H](CCCCN)C(=O)N[C@@H](CCCCN)C(N)=O)CC4CCCCC43)CC3CCCCC32)CC2CCCCC21 (stereo partly shown) [FKAB-1Gf1] (Ac-GFG[ξOic]GKG[ξOic]GFG[ξOic]GKGKKKK-NH2) , then report it.
Output: 3.30

Task: Look up red blood cells data: % hemolysis 100/25 μM (first value) of CC(=O)NCC(=O)N[C@@H](Cc1ccccc1)C(=O)N1Cc2ccccc2CC1C(=O)NCC(=O)NCC(=O)N[C@@H](CCCCN)C(=O)N1Cc2ccccc2CC1C(=O)NCC(=O)NCC(=O)N[C@@H](Cc1ccccc1)C(=O)N1Cc2ccccc2CC1C(=O)NCC(=O)NCC(=O)N[C@@H](CCCCN)C(=O)N1Cc2ccccc2CC1C(=O)N[C@@H](CCCCN)C(=O)N[C@@H](CCCCN)C(=O)N[C@@H](CCCCN)C(=O)N[C@@H](CCCCN)C(N)=O (stereo partly shown) [FKAB-1Gg1] (Ac-GF[ξTic]GGK[ξTic]GGF[ξTic]GGK[ξTic]KKKK-NH2) , then report it.
Output: 5.70
